# assay.system: recombinant human GITR (Cat No. 13643-H08H, Lot No. LC12JA2509, Sino Biological) (human) (UniProt Q9Y5U5)
# run.description: SPR Biacore 8K, single-cycle kinetics, IgG in supernatant captured on Protein A, GITR as analyte
This section presents binders with their documented koff values.
Dear colleague, please return just the value in s⁻¹, with no unit written.

Previously resolved entries follow.
binder="anti-GITR 51B VH3/VL4 humanized antibody (human IgG1, kappa) (antibody, V domains shown, also called VH3/Vk4; 51B VH3/Vk4) VH: QVQLVQSGAEVKKPGASVKVSCKTTGYRFTGYWIEWVRQPPGKGLEWIGEILPGSGATYYSENFKGKVTITADTSTDTAYMELSSLRSEDTAIYYCARKGGYYAMDYWGQGTLVTVSS VL: EIVLTQSPATLSLSPGERATLSCTASSSVSSSYFHWYQQKPGKAPKLWIYSTSNLQSGVPDRFSGSGSGTDYTLTISSLQAEDVATYYCHLYHRSPRTFGGGTKVEIKR" quantity_unit=s⁻¹ measured_result=0.000467
binder="anti-GITR 51B VH2/VL4 humanized antibody (human IgG1, kappa) (antibody, V domains shown) VH: QVQLVQSGAEVKKPGASVKLSCKTTGYRFTGYWIEWVRQPPGKGLEWIGEILPGSGATYYSENFKGKATITADTSTNTAYMEVSSLRSEDTAIYYCARKGGYYAMDYWGQGTLVTVSS VL: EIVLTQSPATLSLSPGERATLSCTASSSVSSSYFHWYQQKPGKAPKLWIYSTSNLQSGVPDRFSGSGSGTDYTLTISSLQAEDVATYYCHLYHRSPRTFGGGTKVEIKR" quantity_unit=s⁻¹ measured_result=0.000577
binder="anti-GITR 51B VH0/VL0 chimeric antibody (human IgG1, kappa) (antibody, V domains shown, Chimeric antibody; also called VH0/Vk0; 51B VH0/Vk0) VH: QVQLQQSGAELMKPGASVKLSCKTTGYRFTGYWIEWVKQRPGHGLEWIGEILPGSGATYYSENFKGKATFTADTSSNTAYMQVSSLTTGDSAIYYCARKGGYYAMDYWGQGTSVTVSS VL: QIVLTQSPAIMSASLGERVTMTCTASSSVSSSYFHWYQQKPGSSPKLWIYSTSNLASGVPARFSGSGSGTSYSLTVSSLEAEDAATYYCHLYHRSPRTFGGGTTLDIKR" quantity_unit=s⁻¹ measured_result=0.000334

What value of koff has been recorded for this entry: anti-GITR 51B VH5/VL5 humanized antibody (human IgG1, kappa) (antibody, V domains shown) VH: QVQLVQSGAEVKKPGASVKVSCKTTGYRFTGYWIDWVRQPPGKGLEWIGEILPGSGATYYSENFKGKVTITADTSTDTAYMELSSLRSEDTAIYYCARKGGYYAMDYWGQGTLVTVSS VL: EIVLTQSPATLSLSPGERATLSCTASSSVSSSYFHWYQQKPGKAPKLWIYSTSNLESGVPDRFSGSGSGTDYTLTISSLQAEDVATYYCHLYHRSPRTFGGGTKVEIKR
0.000975

What value of koff has been recorded for this entry: anti-GITR 51B VH0/VL1 antibody (human IgG1, kappa) (antibody, V domains shown) VH: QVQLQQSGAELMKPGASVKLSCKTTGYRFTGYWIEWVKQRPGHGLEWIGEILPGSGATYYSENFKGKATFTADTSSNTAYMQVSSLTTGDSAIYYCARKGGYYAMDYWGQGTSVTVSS VL: QIVLTQSPAIMSASLGERVTMSCTASSSVSSSYFHWYQQKPGSAPKLWIYSTSNLASGVPDRFSGSGSGTDYTLTVSSLQAEDVATYYCHLYHRSPRTFGGGTTVDIKR
0.000338
